PROTOCOL_NOTES: Phase 1 multiple ascending dose (MAD) pharmacokinetics
Assay type: in vivo, human
CONDITION_NOTES: human, blood; summary aspect; read-out: half-life in said subject
MEASURED_PARAMETER: half-life

Bench note: what half-life did "CCN(CC)C(=O)c1ccccc1S(=O)(=O)NCC(=O)Nc1ccc(O)cc1" show?
4.9 to 9.8 h
